test system: Tau-BiFC cells; assay: Cytotoxicity (cell survival rate) in tau-BiFC cells; conditions: group treated with Forskolin alone = 100%
Recorded Cell survival rate (% @ 10 μM) values for a group of compounds are listed next.
Note: unit % is implicit; provide only the numeric part.

Mol Smiles: Cc1cnc(C(=O)Nc2nc3ccc(NN=C(C#N)C#N)cc3s2)cn1
Cell survival rate (% @ 10 μM) / %: 129.2

Mol Smiles: COc1cc(-c2ncccn2)ccc1NN=C(C#N)C#N
Cell survival rate (% @ 10 μM) / %: 112.3

Consider the record given below.
The reported Cell survival rate (% @ 10 μM) of the compound Cn1ccc2cc(NN=C(C#N)C#N)ccc21 was 177.2

Numbers sourced from patent US12590071B2.
